Answer each item with its documented Mean relative activity.
tested on: K562 CRISPRi cells; test: Constant region variant library pooled growth screen, K562; type: cell-based, human; conditions: sgRNA constant region variants; activity relative to the unmodified constant region cr995
Give only the figure.

In one line, give reported Mean relative activity of the entry cr207 (nucleic acid, listed as DNA, chemistry not fully specified) guide: GTTTAAGAGCTAAGCTGGAAACAGCATAGCAAGTTTAAATAAGGCTAGTCCGTTATCAACTTGAAAAAGTGGCACCGAGTGGGTGCT .
0.2154

Specify measured Mean relative activity for cr760 (nucleic acid, listed as DNA, chemistry not fully specified) guide: GTTTAAGAGCTAAGCTGGAAACAGCATAGCAGGTTTAAATCAGGCTAGTCCGTTATCAACTTGATAAAGTGGCACCGAGTCGGTGCT .
0.1909

In one line, give reported Mean relative activity of the entry cr076 (nucleic acid, listed as DNA, chemistry not fully specified) guide: AATTAAGAGCTAAGCTGGAAACAGCATAGCAAGTTTAAATAAGGCTAGTCCGTTATCAACTTGAAAAAGTGGCACCGAGTCGGTGCT .
0.2741

Give recorded Mean relative activity. cr900 (nucleic acid, listed as DNA, chemistry not fully specified) guide: GTTTAAGAGCTAAGCTGGAAACAGCATAGCAAGTTGAAATAAGGCTAGTCCGTTATCAACTTGAAAAAGTGGCACCGAGTCGGTGCT
0.1846

Give me measured Mean relative activity, please, for this molecule: cr490 (nucleic acid, listed as DNA, chemistry not fully specified) guide: GTTTAAGAGCTAAGCTGGAAACAGCATAGCAAGTTTAAATAAGGCTAGTCCGTTATCAAATTGAAAAATTGGCGCCCAGTGGGCGCT
0.1317

Indicate its recorded Mean relative activity; the molecule in question is cr220 (nucleic acid, listed as DNA, chemistry not fully specified) guide: GTTTAAGAGCTAAGCTGGAAACAGCATAGCAAGTTTAAATCAGGCTAGTCCATAATCAACTTGAAAAAGTGGCACCGAGTCGGTGCT
0.2229

For the molecule cr077 (nucleic acid, listed as DNA, chemistry not fully specified) guide: GATTAAGTGCTAAGCTGGAAACAGCATAGCAAGTTTAAATAAGGCTAGTCCGTTATCAACTTGAAAAAGTGGCACCGAGTCGGTGCT , report Mean relative activity.
0.2538
